test_details: Tanguay_ZF_120hpf_CIRC_legacy: (Legacy) Oregon State University Tanguay Lab 120 Hour Post-fertilization zebrafish Assay for Circulatory Malformation (AID 2283651)
Method: Tanguay_ZF_120hpf_legacy is a whole embryo, multiplexed endpoint assay using zebrafish larvae exposed for 120 hours post fertilization on a 96-well plate.Tanguay_ZF_120hpf_CIRC_legacy is one of one assay component(s) measured or calculated from the Tanguay_ZF_120hpf_legacy assay. […] This assay endpoint, Tanguay_ZF_120hpf_CIRC_legacy, was analyzed in the positive analysis fitting direction relative to DMSO as the negative control and baseline of activity. […]
Results filed as inconclusive are left out. The source made the active and inactive calls. The calls were made as follows: active = hit-call score of the fitted dose curve at least 0.9, where 1 is the maximum; inconclusive = response in the unintended direction; inactive = score below 0.9.
recorded_metric: outcome

| smiles_structure | reported_value |
| --- | --- |
| C=CCCCCCCCCC(=O)O | inactive |
| COC(=O)c1ccccc1O | inactive |
| Cc1ccc(S(=O)(=O)O)cc1C | inactive |

* * *

Read-out: Interleukin-1 alpha (IL1a), IL1A (gene 3552)
test_details: BSK_KF3CT_IL1a: BioMAP Diversity Plus: KF3CT Assay for Interleukin-1 alpha (IL1a) Biomarker Activity (AID 2283070)
measurement_parameters: primary human keratinocytes with fibroblasts; actives raise or lower the signal
The source made the active and inactive calls. The calls were made as follows: active = hit-call score of the fitted dose curve at least 0.9, where 1 is the maximum; inactive = score below 0.9.
Thanks in advance; please answer with one of these: active, inactive

| compound | label_class |
| --- | --- |
| O=c1[nH]c2ccc(S(=O)CCN3CCC(Cc4ccc(F)cc4)CC3)cc2o1 (stereo unspecified) | inactive |
| CCCCCCCCCCCCc1ccccc1 | inactive |
| CCc1cc(SCc2sc(-c3ccc(C(F)(F)F)cc3)nc2CN2CCN(c3ccc(OC)cc3)CC2)ccc1OCC(=O)O | active |

Query: Called result for Cc1ccc(C)c(O)c1
Response: inactive

Query: Called result for CNS(=O)(=O)c1cc(C(=O)N2CCC(CCN3C4CCC3CC(n3c(C)nc5ccccc53)C4)(c3cccc(F)c3)CC2)c(Cl)cc1F (stereo unspecified)
Response: inactive

Query: Called result for Cc1ccc(N)cc1O
Response: inactive

Query: Called result for CC(C)CC(C)(O)C#CC(C)(O)CC(C)C (stereo unspecified)
Response: inactive

* * *

Read-out: Lipase C (LIPC), LIPC (gene 3990)
test_details: LTEA_HepaRG_LIPC: Life Technologies and Expression Analysis (LTEA) Assay for Lipase C (LIPC) using HepaRG (AID 2283514)
measurement_parameters: mRNA level, 48 h; actives raise or lower the signal
The source made the active and inactive calls. Rule for the calls: active = hit-call score of the fitted dose curve at least 0.9, where 1 is the maximum; inactive = score below 0.9.
Thanks in advance; please answer with one of these: true (1) for active, false (0) for inactive

Example entries begin here.
| molecule | label_class |
| --- | --- |
| CCCCCCc1ccc(O)cc1O | false (0) |
| O=C1OC(=O)C2C3C=CC(C3)C12 (centres undefined) | false (0) |
| CC[C@H]1OC(=O)[C@H](C)[C@@H](O[C@H]2C[C@@](C)(OC)[C@@H](O)[C@H](C)O2)[C@H](C)[C@@H](O[C@@H]2O[C@H](C)C[C@H](N(C)C)[C@H]2O)[C@](C)(O)C[C@@H](C)C(=O)[C@H](C)[C@@H](O)[C@]1(C)O | false (0) |
| CCNc1ccccc1 | false (0) |
| CC(C)(O)c1coc(S(=O)(=O)NC(=O)Nc2c3c(cc4c2CCC4)CCC3)c1 | false (0) |
| CCN(C(=O)c1cc(C)cc(OC[C@H](C)Nc2ccncc2)c1)C(C)C | true (1) |

Query: Called result for On1ccccc1=S
Response: false (0)

Query: Called result for COc1cccc(-c2ccc(/C=C\CN3CCCCCC3)cc2Cl)c1
Response: true (1)

Query: Called result for Cn1c(=O)c2c(ncn2C)n(C)c1=O
Response: false (0)

Query: Called result for CN(C)c1ccc(N=NS(=O)(=O)O)cc1
Response: false (0)

Query: Called result for CC(C)CCCCCCCOC(=O)CCCCC(=O)OCCCCCCCC(C)C
Response: false (0)

Query: Called result for Nc1nc2ncc(CNc3ccc(C(=O)N[C@@H](CCC(=O)O)C(=O)O)cc3)nc2c(=O)[nH]1
Response: false (0)

Query: Called result for CN(C)c1ccc(Cc2ccc(N(C)C)cc2)cc1
Response: true (1)

Query: Called result for COC(=O)c1ccccc1O
Response: false (0)
